Target: Corticotropin-releasing factor receptor 2/Corticotropin-releasing factor-binding protein (Homo sapiens, UniProt P24387+Q13324)
Sequence (Q13324 whole entry): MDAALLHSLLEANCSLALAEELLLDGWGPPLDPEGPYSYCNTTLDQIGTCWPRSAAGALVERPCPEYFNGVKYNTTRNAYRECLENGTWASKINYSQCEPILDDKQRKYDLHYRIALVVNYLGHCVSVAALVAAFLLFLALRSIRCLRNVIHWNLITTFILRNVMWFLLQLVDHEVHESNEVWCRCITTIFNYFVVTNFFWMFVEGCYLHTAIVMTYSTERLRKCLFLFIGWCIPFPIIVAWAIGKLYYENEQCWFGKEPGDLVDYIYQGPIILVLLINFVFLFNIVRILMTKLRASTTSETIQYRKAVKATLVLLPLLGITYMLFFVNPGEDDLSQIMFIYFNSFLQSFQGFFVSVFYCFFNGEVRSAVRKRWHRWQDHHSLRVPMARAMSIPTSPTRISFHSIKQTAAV
Sequence (P24387 whole entry): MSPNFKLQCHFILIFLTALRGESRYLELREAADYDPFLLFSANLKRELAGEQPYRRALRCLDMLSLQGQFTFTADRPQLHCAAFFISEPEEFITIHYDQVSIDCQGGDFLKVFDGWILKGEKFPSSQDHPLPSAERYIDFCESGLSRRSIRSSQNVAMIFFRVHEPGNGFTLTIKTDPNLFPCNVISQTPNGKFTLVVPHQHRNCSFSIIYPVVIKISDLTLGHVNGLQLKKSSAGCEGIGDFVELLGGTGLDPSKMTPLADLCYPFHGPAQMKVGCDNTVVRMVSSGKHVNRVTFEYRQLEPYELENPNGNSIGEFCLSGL
Test: activators of CRF receptor 2 with binding protein – uHTS hits, confirmation (AID 602473)
Assay type: functional
Conditions: read-out: EC50_Mean
Calls of active or inactive are those of the source. No stated cut-off is given here; in the data, actives have a measured EC50 and inactives only a lower limit.
Labels: 1.0 for active, 0.0 for inactive

{"COMPOUND": "Cc1ccc(S(=O)(=O)N2[C@@H](c3ccc(Br)cc3)C(C(=O)O)=CC[C@H]2c2cccc(C)c2)cc1", "ASSIGNED_LABEL": 0.0}
{"COMPOUND": "COc1ccc(N2CCN(C(=O)c3cc(=O)c4cc(C)c(C)cc4o3)CC2)cc1", "ASSIGNED_LABEL": 0.0}
{"COMPOUND": "Cc1cccc(NC(=S)NC(=O)Cc2ccccc2)c1C", "ASSIGNED_LABEL": 1.0}
{"COMPOUND": "O=C(Nc1ncc(S(=O)(=O)c2ccc([N+](=O)[O-])cc2)s1)c1cccc2ccccc12", "ASSIGNED_LABEL": 1.0}
{"COMPOUND": "COC(=O)C1=C(N)c2c(F)cccc2C1(C#N)c1ccccc1 (stereo unspecified)", "ASSIGNED_LABEL": 0.0}
{"COMPOUND": "COc1ccccc1CN1CCCC(C(=O)N(C)Cc2ccccc2)C1 (stereo unspecified)", "ASSIGNED_LABEL": 0.0}
